# Experimental System: T1, CRH (NT-Biotin) (human and mouse (same sequence), not fully specified; biotin at the N-terminus)
# T1 peptide: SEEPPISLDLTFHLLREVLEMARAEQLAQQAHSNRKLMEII
# Assay Name: ELISA, biotinylated CRH on streptavidin plate
Readout Name: pEC50
# pEC50 = -log10(concentration in molar units)

1) PR006150 (antibody, human IgG1, kappa, V domains shown, PTM-removal variant of PR004290) VH: EVQLVESGGVLVQPGGSLRLSCAASGFTFSSYWMTWVRQAPGKGLEWVANIKQDSSEKYYVDSVKGRFTISRDNAKNSLFLQMNSLRAEDTAVYYCARTLIFDYWGQGTLVTVSS VL: DIVMTQSPLSLPVTPGEPASISCRSSQSLLHSTGYDSLEWYLQKPGQSPQLLIYLGSNRASGVPDRFSGSGSGTDFTLKISRVEAEDVGIYYCMQTLQTPITFGQGTRLEIKR :: 10.89
2) PR006142 (antibody, human IgG1, kappa, V domains shown, PTM-removal variant of PR004290) VH: EVQLVESGGVLVQPGGSLRLSCAASGFTFSSYWMTWVRQAPGKGLEWVANIKQEGSEKYYVDSVKGRFTISRDNAKNSLFLQMNSLRAEDTAVYYCARTLIFDYWGQGTLVTVSS VL: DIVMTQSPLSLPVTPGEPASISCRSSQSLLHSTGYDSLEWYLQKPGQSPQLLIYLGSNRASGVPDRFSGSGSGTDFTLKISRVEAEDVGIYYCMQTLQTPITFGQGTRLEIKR :: 10.32
3) PR004290 (antibody, human IgG1, kappa, V domains shown, Series 1; human IgG1 wildtype Fc; also called Hybridoma Clone 28b3) VH: EVQLVESGGVLVQPGGSLRLSCAASGFTFSSYWMTWVRQAPGKGLEWVANIKQDGSEKYYVDSVKGRFTISRDNAKNSLFLQMNSLRAEDTAVYYCARTLIFDYWGQGTLVTVSS VL: DIVMTQSPLSLPVTPGEPASISCRSSQSLLHSTGYNSLEWYLQKPGQSPQLLIYLGSNRASGVPDRFSGSGSGTDFTLKISRVEAEDVGIYYCMQTLQTPITFGQGTRLEIKR :: 10.54
4) PR005656 (antibody, human IgG1, kappa, V domains shown, PTM-removal variant of PR004290) VH: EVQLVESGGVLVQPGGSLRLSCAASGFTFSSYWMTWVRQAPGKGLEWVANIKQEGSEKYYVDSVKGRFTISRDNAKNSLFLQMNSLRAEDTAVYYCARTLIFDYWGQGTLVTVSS VL: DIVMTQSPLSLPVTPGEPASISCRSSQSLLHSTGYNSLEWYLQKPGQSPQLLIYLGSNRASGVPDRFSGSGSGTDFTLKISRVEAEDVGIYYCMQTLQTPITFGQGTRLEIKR :: 10.59

As a next step, examine the binder that follows.
Quick check: pEC50 of PR006144 (antibody, human IgG1, kappa, V domains shown, PTM-removal variant of PR004290) VH: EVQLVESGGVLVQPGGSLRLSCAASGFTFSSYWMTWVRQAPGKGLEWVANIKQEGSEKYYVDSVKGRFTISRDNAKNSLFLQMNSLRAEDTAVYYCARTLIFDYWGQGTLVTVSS VL: DIVMTQSPLSLPVTPGEPASISCRSSQSLLHSTGYNPLEWYLQKPGQSPQLLIYLGSNRASGVPDRFSGSGSGTDFTLKISRVEAEDVGIYYCMQTLQTPITFGQGTRLEIKR ? 10.48
